Tested on: BALB/c mice
Assay: Toxicity and movement activity after i.v. injection
Conditions: BALB/c mice, i.v. single dose 75 μl of 1 mM per mouse, movements within 30 minutes, observed up to one week
Peptide text beside a SMILES is read from it.
parameter-measured: toxicity by mouse movements

compound: CC[C@H](C)[C@H](NC(=O)[C@H](CC(C)C)NC(=O)[C@H](CC(N)=O)NC(=O)[C@H](CC(C)C)NC(=O)[C@H](CC(C)C)NC(=O)[C@H](CCCCN)NC(=O)CNC(=O)CNC(=O)[C@H](CS)NC(=O)[C@H](CCCNC(=N)N)NC(=O)CNC(=O)[C@H](CC(N)=O)NC(=O)[C@@H](N)CS)C(=O)N[C@@H](CO)C(=O)N[C@@H](CCCCN)C(=O)N[C@@H](CC(C)C)C(=O)N[C@@H](Cc1ccccc1)C(=O)O [TU1:MTD] (H-CNGRCGGKLLNLISKLF-OH)
result: toxic
